test system: A549 NSCLC; assay: NCI tumour cell line growth inhibition, 48 h
experimental endpoint: TGI

Look up TGI with A549 NSCLC for this molecule: CC(=O)N[C@@H](Cc1ccc(OP(=O)(O)O)cc1)C(=O)N[C@H]1CCC(=O)N2CCC[C@@H](C(=O)NC3CCc4ccccc43)N2C1=O (stereo not given in full)
> 25 µM

Here is the next molecule: COC(=O)Cc1c(C2C(CC(=O)OC)c3ccccc3N2C2OC(CO)C(O)C(O)C2O)[nH]c2ccccc12 (stereo not given)
> 100 µM

Here is the next molecule: COCCn1c2c([n+](Cc3cnccn3)c1C)C(=O)c1ccccc1C2=O
0.0434 µM

Here is the next molecule: CO/C(=C1/NC(=O)C(Cc2ccc(O)c(Br)c2)N(C)C(=O)C(C)NC(=O)CCC/C=C(\C)CCC(C)OC1=O)c1ccccc1 (stereo not given)
0.471 µM

Here is the next molecule: CCN(/N=C1\CC2C=CCN(C2)C(=O)Cc2c1[nH]c1ccccc21)S(=O)(=O)c1ccc(C)cc1 (stereo not given)
> 100 µM

Here is the next molecule: Cc1ccc(NC(=O)CC2SC(=Nc3ccc(Cl)cc3)NC2=O)cc1C (stereo not given)
34.3 µM

Here is the next molecule: COc1cc(N2CCC(N)CC2)ccc1Nc1ncc(Cl)c(-c2c[nH]c3ccccc23)n1
1.65 µM

Here is the next molecule: CSC1=Nc2ccccc2N=C(c2ccccc2)C1
> 100 µM

Here is the next molecule: NC(=O)c1csc(-c2ccc(CO)o2)n1
> 100 µM

Here is the next molecule: CN(C)C1CN(C(=O)c2cc(-c3ccc4ncnc(N5CCc6cc(F)c(Cl)cc65)c4c3)cnc2N)C1
> 100 µM

Here is the next molecule: COc1ccc(/C=C\c2cc(OC)c(OC)c(OC)c2)c(NS(=O)(=O)c2ccc(F)cc2)c1O
> 100 µM

Here is the next molecule: Cn1c(=O)cc(Nc2ccc(N)cc2)[nH]c1=O
> 100 µM

Here is the next molecule: N#CCCN(c1ccc(C=O)cc1)S(=O)(=O)c1ccccc1
> 100 µM

Here is the next molecule: COc1cc(C(c2ccc3c(c2)OCO3)C2SCCCS2)cc(OC)c1OC (stereo not given)
53.3 µM

Here is the next molecule: S=C(S)NCCN1CCNCC1
> 100 µM

Here is the next molecule: Cc1cc(C)c2c(c1)N(C)c1ncnc(-n3cnc4cc(C)ccc43)c1CC2C (stereo not given)
56.9 µM

Here is the next molecule: CC1OC(CO)(n2cnc3c(N)ncnc32)C(O)C1O (stereo not given)
> 100 µM

Here is the next molecule: CCOc1cc2c(cc1O)C(=O)C[C@@H]1[C@@H]2CC[C@]2(C)[C@@H](O)CC[C@@H]12
> 100 µM

Here is the next molecule: COC1C(=O)CCC2(CO2)C1(O)C1(C)OC1CC=C(C)C (stereo not given)
> 100 µM

Here is the next molecule: CN1CCN(c2n[nH]c(=O)c3c2nnn3C2CCCCC2)CC1
> 100 µM

Here is the next molecule: CC(C)C1=CC2=C(C(=O)C1=O)C13CCCC(C)(C)C1CC2OC3=O (stereo not given)
> 100 µM

Here is the next molecule: O=C1N[C@H](C(=O)O)[C@@H](c2ccc(OCc3ccccc3)cc2)O1
> 100 µM

Here is the next molecule: CCCCCCCCCCCCCCCCCCOc1ccccc1COP(=O)(O)OOCC[N+](C)(C)C
23.6 µM

Here is the next molecule: O=C(O)CCC1c2[nH]c3ccccc3c2CCN1Cc1ccccc1 (stereo not given)
> 100 µM

Here is the next molecule: O=C(CC(C(=O)c1cccs1)c1ccc2c(c1)OCO2)c1ccccc1 (stereo not given)
> 100 µM

Here is the next molecule: Cc1cc(N=Cc2c(CO)cnc(C)c2O)c(N=Cc2c(CO)cnc(C)c2O)cc1C
> 100 µM

Here is the next molecule: Cc1ccc(-c2cc(=O)c(=O)[nH][nH]2)cc1
> 100 µM

Here is the next molecule: CC1=CC[C@@H](C(C)(C)O)C[C@@H]1O
> 5000 µM

Here is the next molecule: C[C@]12CCc3nn(-c4ccccc4)nc3C1CC[C@@H]1C2CC[C@]2(C)C(=O)CCC12 (stereo not given in full)
> 100 µM

Here is the next molecule: CCOC(=O)C(=O)C(C#N)c1ccc(Cl)cc1 (stereo not given)
> 100 µM
